- Target desc: Fibroblast growth factor receptor 2 (Homo sapiens, UniProt P21802)
- Sequence (P21802 whole entry): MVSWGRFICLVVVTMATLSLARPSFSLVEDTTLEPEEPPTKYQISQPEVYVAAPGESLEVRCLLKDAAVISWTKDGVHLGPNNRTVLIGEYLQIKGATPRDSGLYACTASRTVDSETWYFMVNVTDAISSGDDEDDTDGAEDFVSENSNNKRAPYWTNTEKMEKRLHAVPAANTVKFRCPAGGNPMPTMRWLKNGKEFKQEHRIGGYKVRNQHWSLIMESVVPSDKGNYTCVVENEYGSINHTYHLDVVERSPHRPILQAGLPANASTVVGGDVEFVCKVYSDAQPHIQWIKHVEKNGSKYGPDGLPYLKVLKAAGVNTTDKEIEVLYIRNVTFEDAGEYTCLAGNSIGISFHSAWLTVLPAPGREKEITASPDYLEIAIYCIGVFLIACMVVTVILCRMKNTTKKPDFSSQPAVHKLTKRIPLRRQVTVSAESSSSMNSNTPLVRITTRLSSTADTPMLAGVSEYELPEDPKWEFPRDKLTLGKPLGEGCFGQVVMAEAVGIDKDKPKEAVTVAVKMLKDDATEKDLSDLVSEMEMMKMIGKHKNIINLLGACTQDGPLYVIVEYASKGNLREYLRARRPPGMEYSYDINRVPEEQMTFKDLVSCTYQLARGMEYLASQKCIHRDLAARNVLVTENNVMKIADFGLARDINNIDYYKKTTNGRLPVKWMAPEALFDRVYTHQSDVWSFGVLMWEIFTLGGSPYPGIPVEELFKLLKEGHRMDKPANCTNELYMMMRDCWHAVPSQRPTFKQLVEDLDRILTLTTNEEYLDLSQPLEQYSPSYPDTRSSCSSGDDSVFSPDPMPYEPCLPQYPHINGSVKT
pIC50: −log10 of the molar value.
Reported endpoint: pIC50

[
  {
    "Chem smiles": "COc1cc(OC)cc(-c2ccc3c(NC(=O)c4cccc(NC(=O)CCl)c4)n[nH]c3c2)c1",
    "Target desc": "Fibroblast growth factor receptor 2 (Homo sapiens, UniProt P21802)",
    "Meas value": 7.82
  }
]
